molecular target: Tyrosine-protein kinase SYK (Homo sapiens, UniProt P43405)
MEASURE: IC50

q: Given Cn1cc(-c2cc(N[C@@H]3CCCC[C@@H]3N)cnc2C(N)=O)cn1 , report its IC50 on Tyrosine-protein kinase SYK (Homo sapiens, UniProt P43405).
a: > 10 µM

====

assay: Oral bioavailability in rat; format: ADME, organism-based; settings: in vivo
MEASURE: bioavailability

q: Specify measured bioavailability for NC(=O)c1ncc(N[C@@H]2CCCC[C@@H]2N)nc1-c1cc2ccccc2[nH]1 .
a: 19%
